Recorded T/C for the following compounds
Tested on: L1210 leukemia ip in BDF1 mice, survival T/C
Assay: NCI In Vivo Anticancer Drug Screen. Data for tumor model L1210 Leukemia (intraperitoneal) in B6D2F1 (BDF1) mice
Conditions: endpoint: mean survival time; dose: 400.0 mg/kg/injection; schedule: Q04DX003 (ip); vehicle: saline with Tween-80; higher = longer survival
Inconclusive results and toxic doses are left out.

C#CCN(C)CCO : 100 % of control

[in] Entry CCCCCCCCCCCCCCCCCCOB(OCCCCCCCCCCCCCCCCCC)OCCCCCCCCCCCCCCCCCC , system L1210 leukemia ip in BDF1 mice, survival T/C: what T/C was measured?
[out] 97 % of control

[in] Entry COc1cc(Oc2c(OC)cc(N)cc2OC)cc(OC)c1OC , system L1210 leukemia ip in BDF1 mice, survival T/C: what T/C was measured?
[out] 95 % of control

[in] Entry C[Si](C)(C)Oc1c(Cl)cc(Cl)cc1Cl , system L1210 leukemia ip in BDF1 mice, survival T/C: what T/C was measured?
[out] 91 % of control

[in] Entry COc1cc(CC#N)c(OC)cc1CC#N , system L1210 leukemia ip in BDF1 mice, survival T/C: what T/C was measured?
[out] 88 % of control

[in] Entry CCCCCCCCCCCCCCCCOc1ccccc1C(C)=O , system L1210 leukemia ip in BDF1 mice, survival T/C: what T/C was measured?
[out] 93 % of control

[in] Entry CC(=O)Nc1nc(=O)n(CC(=O)c2cccs2)cc1F , system L1210 leukemia ip in BDF1 mice, survival T/C: what T/C was measured?
[out] 101 % of control

[in] Entry Cc1ccccc1NC=O , system L1210 leukemia ip in BDF1 mice, survival T/C: what T/C was measured?
[out] 100 % of control

[in] Entry O=C1C(Br)C2CCC1C2C(=O)O (stereo unspecified) , system L1210 leukemia ip in BDF1 mice, survival T/C: what T/C was measured?
[out] 101 % of control

[in] Entry CCOC(=O)C(Cc1c(C)c(OC)c(CC(C(=O)OCC)C(=O)OCC)c(C)c1OC)C(=O)OCC , system L1210 leukemia ip in BDF1 mice, survival T/C: what T/C was measured?
[out] 90 % of control

[in] Entry CN(C)/N=N/c1nc(CCCc2ccccc2)[nH]c1C(N)=O , system L1210 leukemia ip in BDF1 mice, survival T/C: what T/C was measured?
[out] 110 % of control

[in] Entry CCCCCCCCCCCCNC1=C(Cl)C(=O)C(=O)c2cccnc21 , system L1210 leukemia ip in BDF1 mice, survival T/C: what T/C was measured?
[out] 95 % of control

[in] Entry Cc1ccc(S(=O)(=O)OC2COC3C2OC2OC(C)(C)OC23)cc1 (stereo unspecified) , system L1210 leukemia ip in BDF1 mice, survival T/C: what T/C was measured?
[out] 106 % of control

[in] Entry O=C(CCN1CC=C(c2ccccc2)CC1)NCc1ccccc1 , system L1210 leukemia ip in BDF1 mice, survival T/C: what T/C was measured?
[out] 100 % of control

[in] Entry O=C(Nc1cccc(Cl)c1)SCCSC(=O)Nc1cccc(Cl)c1 , system L1210 leukemia ip in BDF1 mice, survival T/C: what T/C was measured?
[out] 88 % of control

[in] Entry CC(=O)OCC(CCn1ccc(=O)[nH]c1=O)COC(C)=O , system L1210 leukemia ip in BDF1 mice, survival T/C: what T/C was measured?
[out] 106 % of control

[in] Entry CCC(C)NC(=O)Oc1cccc(NC(=O)OC)c1 (stereo unspecified) , system L1210 leukemia ip in BDF1 mice, survival T/C: what T/C was measured?
[out] 92 % of control

[in] Entry C=C(C)COc1c(C)cc(C)cc1C=Nc1ccccc1 , system L1210 leukemia ip in BDF1 mice, survival T/C: what T/C was measured?
[out] 105 % of control

[in] Entry O=C(O)C1C2CC3C(OC(=O)C31)C2Br (stereo unspecified) , system L1210 leukemia ip in BDF1 mice, survival T/C: what T/C was measured?
[out] 104 % of control

[in] Entry CC1=C2C(=C(CBr)OS1(=O)=O)C(=O)c1ccccc12 , system L1210 leukemia ip in BDF1 mice, survival T/C: what T/C was measured?
[out] 94 % of control
